tested on: NCI-H2085; assay: relative viability (nuclei count vs DMSO), 5 days (fraction); higher = more cells survive; details: first compound 0.1265 µM
Param label: returns TRUE when relative viability < 0.9, returns FALSE otherwise, including exact equality.

>  <Molecule>
Clc1ccc(Nc2nnc(Cc3ccncc3)c3ccccc23)cc1 [Vatalanib] + C[C@]1(O)C[C@@H](c2nc(-c3ccc4ccc(-c5ccccc5)nc4c3)c3c(N)nccn32)C1 [Linsitinib] (partner 1 µM)

>  <Label>
FALSE

$$$$
>  <Molecule>
Clc1ccc(Nc2nnc(Cc3ccncc3)c3ccccc23)cc1 [Vatalanib] + N=C(N)NC(=N)NCCc1ccccc1 [Phenformin] (partner 250 µM)

>  <Label>
TRUE

$$$$
>  <Molecule>
Clc1ccc(Nc2nnc(Cc3ccncc3)c3ccccc23)cc1 [Vatalanib] + CC1(C)CCC(c2ccc(Cl)cc2)=C(CN2CCN(c3ccc(C(=O)NS(=O)(=O)c4ccc(N[C@H](CCN5CCOCC5)CSc5ccccc5)c(S(=O)(=O)C(F)(F)F)c4)cc3)CC2)C1 [Navitoclax] (partner 0.5 µM)

>  <Label>
FALSE

$$$$
>  <Molecule>
COc1cc(N2CCC(C(N)=O)CC2)ccc1Nc1nc(N)c(Cl)c(Nc2ccccc2S(=O)(=O)C(C)C)n1 [HG-5-88-01] + CC1(C)CCC(c2ccc(Cl)cc2)=C(CN2CCN(c3ccc(C(=O)NS(=O)(=O)c4ccc(N[C@H](CCN5CCOCC5)CSc5ccccc5)c(S(=O)(=O)C(F)(F)F)c4)cc3)CC2)C1 [Navitoclax] (partner 0.5 µM)

>  <Label>
FALSE

$$$$
>  <Molecule>
Clc1ccc(Nc2nnc(Cc3ccncc3)c3ccccc23)cc1 [Vatalanib] + CS(=O)(=O)CCNCc1ccc(-c2ccc3ncnc(Nc4ccc(OCc5cccc(F)c5)c(Cl)c4)c3c2)o1 [Lapatinib] (partner 2 µM)

>  <Label>
TRUE

$$$$
>  <Molecule>
Clc1ccc(Nc2nnc(Cc3ccncc3)c3ccccc23)cc1 [Vatalanib] + CCNC(=O)c1noc(-c2cc(C(C)C)c(O)cc2O)c1-c1ccc(CN2CCOCC2)cc1 [Luminespib] (partner 0.01 µM)

>  <Label>
TRUE

$$$$
>  <Molecule>
COc1cc(N2CCC(C(N)=O)CC2)ccc1Nc1nc(N)c(Cl)c(Nc2ccccc2S(=O)(=O)C(C)C)n1 [HG-5-88-01] + CS(=O)(=O)CCNCc1ccc(-c2ccc3ncnc(Nc4ccc(OCc5cccc(F)c5)c(Cl)c4)c3c2)o1 [Lapatinib] (partner 2 µM)

>  <Label>
TRUE

$$$$
>  <Molecule>
Clc1ccc(Nc2nnc(Cc3ccncc3)c3ccccc23)cc1 [Vatalanib] + Cc1cc(Nc2cc(N3CCN(C)CC3)nc(Sc3ccc(NC(=O)C4CC4)cc3)n2)n[nH]1 [Tozasertib] (partner 0.1 µM)

>  <Label>
TRUE

$$$$
>  <Molecule>
COc1cc(N2CCC(C(N)=O)CC2)ccc1Nc1nc(N)c(Cl)c(Nc2ccccc2S(=O)(=O)C(C)C)n1 [HG-5-88-01] + NC(=O)Nc1cc(-c2cccc(F)c2)sc1C(=O)N[C@H]1CCCNC1 [AZD7762] (partner 0.2 µM)

>  <Label>
FALSE

$$$$
>  <Molecule>
COc1cc(N2CCC(C(N)=O)CC2)ccc1Nc1nc(N)c(Cl)c(Nc2ccccc2S(=O)(=O)C(C)C)n1 [HG-5-88-01] + Nc1ncn([C@H]2C[C@H](O)[C@@H](CO)O2)c(=O)n1 [Decitabine] (partner 2 µM)

>  <Label>
TRUE

$$$$
>  <Molecule>
COc1cc(N2CCC(C(N)=O)CC2)ccc1Nc1nc(N)c(Cl)c(Nc2ccccc2S(=O)(=O)C(C)C)n1 [HG-5-88-01] + CC(=O)Nc1cccc(-n2c(=O)n(C3CC3)c(=O)c3c(Nc4ccc(I)cc4F)n(C)c(=O)c(C)c32)c1 [Trametinib] (partner 0.02 µM)

>  <Label>
TRUE

$$$$
>  <Molecule>
Clc1ccc(Nc2nnc(Cc3ccncc3)c3ccccc23)cc1 [Vatalanib] + O=C(c1cc(Cc2n[nH]c(=O)c3ccccc23)ccc1F)N1CCN(C(=O)C2CC2)CC1 [Olaparib] (partner 8 µM)

>  <Label>
TRUE

$$$$
>  <Molecule>
COc1cc(N2CCC(C(N)=O)CC2)ccc1Nc1nc(N)c(Cl)c(Nc2ccccc2S(=O)(=O)C(C)C)n1 [HG-5-88-01] + COc1cc2c(Oc3ccc(NC(=O)C4(C(=O)Nc5ccc(F)cc5)CC4)cc3F)ccnc2cc1OCCCN1CCOCC1 [Foretinib] (partner 0.25 µM)

>  <Label>
FALSE

$$$$
>  <Molecule>
COc1cc(N2CCC(C(N)=O)CC2)ccc1Nc1nc(N)c(Cl)c(Nc2ccccc2S(=O)(=O)C(C)C)n1 [HG-5-88-01] + COc1cccc2cc(-c3nc([C@H]4CC[C@H](C(=O)O)CC4)n4ncnc(N)c34)[nH]c12 [OSI-027] (partner 0.5 µM)

>  <Label>
TRUE

$$$$
>  <Molecule>
C[C@@H]1CN(CC(=O)Nc2ccc3c(c2)Cc2cccc(-c4cc(=O)cc(N5CCOCC5)o4)c2S3)C[C@H](C)O1 + Cc1cc(Nc2cc(N3CCN(C)CC3)nc(Sc3ccc(NC(=O)C4CC4)cc3)n2)n[nH]1 [Tozasertib] (partner 0.1 µM)

>  <Label>
TRUE

$$$$
>  <Molecule>
Clc1ccc(Nc2nnc(Cc3ccncc3)c3ccccc23)cc1 [Vatalanib] + COc1cccc2cc(-c3nc([C@H]4CC[C@H](C(=O)O)CC4)n4ncnc(N)c34)[nH]c12 [OSI-027] (partner 0.5 µM)

>  <Label>
TRUE

$$$$
